property: IC50 (µM)
Express your answer in µM, writing the number without its unit.

Exercise: Recorded IC50 for Cn1cc(C(=O)O)c2ccc(C3CCC(OCc4c(-c5c(Cl)cccc5Cl)noc4C4CC4)CC3)cc21 (stereo not shown) with P-gp (Homo sapiens), please?
Solution: 3.92

Origin of the recorded values: patent US20240293416A1
